Please go through the items and note down their Log10TGI.
- System: SK-MEL-5
- ASSAY SUMMARY: NCI 60 cell line screen (SRB), Melanoma
- Format: cell-based
- RUN CONDITIONS: SK-MEL-5 (Melanoma)

// query Fill in reported Log10TGI for this entry: C[C@@H]1CC[C@H]2[C@@H](C)C(=O)O[C@@H]3O[C@@]4(C)CC[C@@H]1[C@]32OO4 [QHS, reference compound]
// result >−4.00 M

// query Fill in reported Log10TGI for this entry: COC1OC2(C)CCC3CCCC(CCOC(=O)c4cccc(C(=O)OCCC5CCCC6CCC7(C)OOC56C(OC)O7)c4)C31OO2 (stereo not shown)
// result >−4.30 M

// query Fill in reported Log10TGI for this entry: COC1OC2(C)CCC3CCCC(CCOC(=O)c4ccc(C(=O)OCCC5CCCC6CCC7(C)OOC56C(OC)O7)cc4)C31OO2 (stereo not shown)
// result >−4.00 M

// query Fill in reported Log10TGI for this entry: COC1OC2(C)CCC3CCCC(CCOCCC4CCCC5CCC6(C)OOC45C(OC)O6)C31OO2 (stereo not shown)
// result −4.90 M
